Test: Cmax in Sprague-Dawley rat at 1 mg/kg, po by LC-MS/MS analysis
Assay type: ADME, organism-based
Design: dose 1 mg/kg, route oral
Details: in vivo
readout type: Cmax (ng/mL)
State just the number; it will be interpreted in ng/mL.

The recorded Cmax for entry Cc1ccc(OC2CN(c3cccc(COC(=O)NC(=N)N)c3F)C2)cn1.O=C(O)C(O)C(O)C(=O)O equals 401

###

Experiment: AUC in Sprague-Dawley rat at 1 mg/kg, iv by LC-MS/MS analysis
Assay type: ADME, organism-based
Settings: in vivo
readout type: AUC (ng·h/mL)
The response must be a number in ng·h/mL with no trailing unit.

GET /value?item= Cc1ccc(OC2CN(c3cccc(COC(=O)NC(=N)N)c3F)C2)cn1.O=C(O)C(O)C(O)C(=O)O &field=AUC returns 3200

###

Assay: Stability in Beagle dog plasma assessed as parent compound remaining at 2 uM after 6 hrs by LC-MS/MS analysis relative to initial concentration
Format: ADME, cell-free, Canis lupus familiaris
Conditions: read-out: Stability
readout type: remaining at 6 h, 2 µM (%)
Response body: numeric value in %, unit text excluded.

The compound N=C(N)NC(=O)OCc1cccc(-c2cnc(N3CCOCC3)nc2)c1.O=C(O)C(O)C(O)C(=O)O showed remaining at 6 h, 2 µM equal to 98.3

###

The following compounds are shown together with reported activity at 20 min, 5 µM values.
Biological target: CYP3A4 (Homo sapiens, UniProt P08684)
Sequence (P08684 whole entry): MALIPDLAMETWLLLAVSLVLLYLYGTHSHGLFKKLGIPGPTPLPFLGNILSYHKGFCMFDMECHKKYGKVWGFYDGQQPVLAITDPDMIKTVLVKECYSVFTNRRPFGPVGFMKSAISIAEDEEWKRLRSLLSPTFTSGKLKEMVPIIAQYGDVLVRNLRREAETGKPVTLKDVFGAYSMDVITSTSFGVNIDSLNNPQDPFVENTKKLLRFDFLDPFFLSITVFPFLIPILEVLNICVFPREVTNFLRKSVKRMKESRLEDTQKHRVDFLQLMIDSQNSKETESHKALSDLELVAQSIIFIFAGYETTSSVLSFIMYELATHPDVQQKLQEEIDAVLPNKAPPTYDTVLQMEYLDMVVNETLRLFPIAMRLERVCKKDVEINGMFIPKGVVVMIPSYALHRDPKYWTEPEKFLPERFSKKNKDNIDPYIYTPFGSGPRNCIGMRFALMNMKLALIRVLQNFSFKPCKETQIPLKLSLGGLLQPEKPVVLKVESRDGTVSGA
Test: Inhibition of CYP3A4 in human liver microsomes using midazolam as substrate assessed as residual activity at 5 uM after 20 mins by HPLC analysis
Assay type: ADME
Settings: probe midazolam, read-out: Activity
Quick reminder: number only, in %, skip the unit.

Example entries begin here.
Consider N=C(N)NC(=O)OCc1cccc(N2CCC(Oc3cccnc3)CC2)c1F.O=C(O)C(O)C(O)C(=O)O . Its measured activity at 20 min, 5 µM is 32

# compound N=C(N)NC(=O)OCc1cccc(N2CCN(c3cccnc3)CC2)c1F.O=C(O)C(O)C(O)C(=O)O ; its activity at 20 min, 5 µM = 61

Measured activity at 20 min, 5 µM of Cl.Cl.Cl.N=C(N)NC(=O)OCc1cccc(N2CCN(c3cccnc3)CC2)c1 : 64

Form field activity at 20 min, 5 µM, entry Cc1ccc(OC2CN(c3cccc(COC(=O)NC(=N)N)c3F)C2)cn1.O=C(O)C(O)C(O)C(=O)O : 85

Memo: Cc1ncccc1OC1CN(c2cccc(COC(=O)NC(=N)N)c2F)C1.O=C(O)C(O)C(O)C(=O)O , reported activity at 20 min, 5 µM: 96

The recorded activity at 20 min, 5 µM for N=C(N)NC(=O)OCc1cccc(-c2cnc(N3CCOCC3)nc2)c1.O=C(O)C(O)C(O)C(=O)O is 109

Kindly note the recorded activity at 20 min, 5 µM for Cl.Cl.Cl.N=C(N)NC(=O)OCc1cccc(N2CCN(c3ccncc3)CC2)c1 , which is 80

Please find the next compound below.
Query N=C(N)NC(=O)OCc1cccc(N2CC(Oc3cccnc3)C2)c1F.N=C(N)NC(=O)OCc1cccc(N2CC(Oc3cccnc3)C2)c1F.O=C(O)C(O)C(O)C(=O)O yields activity at 20 min, 5 µM of 56

###

Listed here are molecules together with their documented pIC50.
Biological target: Amine oxidase [copper-containing] 3 (Homo sapiens, UniProt Q16853)
Sequence (Q16853 whole entry): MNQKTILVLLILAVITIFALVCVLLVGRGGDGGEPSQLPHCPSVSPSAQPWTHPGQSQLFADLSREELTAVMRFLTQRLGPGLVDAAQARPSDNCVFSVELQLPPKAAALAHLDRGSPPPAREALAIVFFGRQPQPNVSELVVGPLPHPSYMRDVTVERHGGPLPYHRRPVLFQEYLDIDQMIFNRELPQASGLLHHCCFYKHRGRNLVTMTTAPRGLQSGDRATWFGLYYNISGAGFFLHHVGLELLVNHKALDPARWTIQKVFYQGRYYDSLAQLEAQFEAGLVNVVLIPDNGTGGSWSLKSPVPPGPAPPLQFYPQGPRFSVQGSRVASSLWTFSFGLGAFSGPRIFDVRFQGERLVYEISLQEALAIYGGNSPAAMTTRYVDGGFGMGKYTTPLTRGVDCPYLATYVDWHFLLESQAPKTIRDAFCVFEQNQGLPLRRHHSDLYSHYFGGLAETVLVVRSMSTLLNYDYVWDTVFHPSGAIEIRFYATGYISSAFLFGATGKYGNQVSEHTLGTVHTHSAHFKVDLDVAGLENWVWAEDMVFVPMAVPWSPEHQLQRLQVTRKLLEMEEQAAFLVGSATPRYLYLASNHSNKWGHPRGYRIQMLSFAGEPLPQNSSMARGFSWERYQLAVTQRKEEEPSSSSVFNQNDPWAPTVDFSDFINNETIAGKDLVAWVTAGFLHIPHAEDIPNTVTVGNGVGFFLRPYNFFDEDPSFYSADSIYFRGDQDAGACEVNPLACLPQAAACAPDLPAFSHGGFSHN
Assay: Inhibition of human VAP-1 expressed in CHO cells preincubated for 20 mins followed by [14C]-benzylamine addition measured after 1 hr by scintillation spectrometric analysis
Format: cell-based
Quick note: pIC50 values are minus log10 of concentrations in mol/L.

The cases that follow already have their pIC50 on record.
GET /value?item= N=C(N)NC(=O)OCc1cccc(N2CCN(C3CCOCC3)CC2)c1.O=C(O)C(O)C(O)C(=O)O &field=pIC50 returns 6.96

Field pIC50 (entry Cl.N=C(N)NC(=O)OCc1cccc(-c2cnc(N3CCOCC3)nc2)c1F ) reads 8.04

Query N=C(N)NC(=O)OCc1cccc(N2CC(Oc3cccnc3)C2)c1F.N=C(N)NC(=O)OCc1cccc(N2CC(Oc3cccnc3)C2)c1F.O=C(O)C(O)C(O)C(=O)O yields pIC50 of 7.62

Recorded result, Cl.Cl.N=C(N)NC(=O)OCc1ccc(F)c(-c2cnc(N3CCOCC3)nc2)c1 , pIC50: 7.00

Sure, the documented pIC50 for N=C(N)NC(=O)OCc1cccc(-c2cnc(N3CCOCC3)nc2)c1.O=C(O)C(O)C(O)C(=O)O is 7.33

Record N=C(N)NC(=O)OCc1ccc(F)c(-c2cnc(N3CCOCC3)nc2)c1F.N=C(N)NC(=O)OCc1ccc(F)c(-c2cnc(N3CCOCC3)nc2)c1F.O=C(O)C(O)C(O)C(=O)O . Reported pIC50: 7.11

pIC50 reported for this molecule Cc1nc(N2CCOCC2)ncc1-c1cccc(COC(=O)NC(=N)N)c1F.O=C(O)C(O)C(O)C(=O)O : 6.40

So, Cl.Cl.Cl.N=C(N)NC(=O)OCc1cccc(N2CCN(c3cccnc3)CC2)c1 ? Its pIC50 was 7.51

***
The molecule listed as N=C(N)NC(=O)OCc1cccc(N2CCC(Oc3cccnc3)CC2)c1F.O=C(O)C(O)C(O)C(=O)O has a reported pIC50 of 7.35

Notebook: Cc1ncccc1OC1CN(c2cccc(COC(=O)NC(=N)N)c2F)C1.O=C(O)C(O)C(O)C(=O)O , pIC50 read as 7.40
